- PROTOCOL_NOTES: Oral bioavailability in Sprague-Dawley rat at 5 mg/kg
- Type: ADME, organism-based
- CONDITION_SET: in vivo
OBSERVATION_TYPE: bioavailability (%)
Form entry: value (%) — number only.

Using the record for CC(C)c1noc(N2CCC(Oc3ncnc4c(-c5ccc(S(C)(=O)=O)cc5F)csc34)CC2)n1 , report its bioavailability.
61.5

---

- PROTOCOL_NOTES: MRTlast in Sprague-Dawley rat at 5 mg/kg, po
- Type: ADME, organism-based
- CONDITION_SET: in vivo
OBSERVATION_TYPE: MRT last (h)
Form entry: value (h) — number only.

Using the record for CC(C)c1noc(N2CCC(Oc3ncnc4c(-c5ccc(S(C)(=O)=O)cc5F)csc34)CC2)n1 , report its MRT last.
3.2

---

EC50 reference
- ASSAYED_SYSTEM: Glucose-dependent insulinotropic receptor (Homo sapiens, UniProt Q8TDV5)
- Sequence (Q8TDV5 whole entry): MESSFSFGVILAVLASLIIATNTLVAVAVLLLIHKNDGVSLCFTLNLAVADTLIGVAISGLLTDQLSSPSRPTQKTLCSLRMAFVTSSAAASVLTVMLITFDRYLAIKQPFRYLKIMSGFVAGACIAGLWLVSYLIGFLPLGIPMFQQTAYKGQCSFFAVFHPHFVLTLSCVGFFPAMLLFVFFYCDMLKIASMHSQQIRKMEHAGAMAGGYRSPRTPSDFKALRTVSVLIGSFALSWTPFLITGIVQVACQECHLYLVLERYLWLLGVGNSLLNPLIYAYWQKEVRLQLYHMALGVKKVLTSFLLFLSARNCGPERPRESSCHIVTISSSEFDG
- PROTOCOL_NOTES: Agonist activity at human GPR119 expressed in CHO-K1 cells preincubated for 5 hrs followed by substrate addition measured after 2 hrs by fluorescence based assay
Form entry: value (nM) — number only.

Use these answered entries as a reference point.
# COMPOUND, EC50 (nM)
data = [
    ("CCc1cnc(N2CCC(c3nc(COc4ccc(-n5cnnn5)cc4)cs3)CC2)nc1", 3.1),
    ("CCc1cnc(N2CCC(Oc3ncnc4c(-c5ccc(S(C)(=O)=O)cc5)csc34)C2)nc1 (centres undefined)", 74.8),
]

Let us examine a further case.
Using the record for CS(=O)(=O)c1ccc(-c2csc3c(N4CCC(c5nc(C6CCCCC6)no5)CC4)ncnc23)cc1 , report its EC50.
12.5

---

- PROTOCOL_NOTES: Tmax in Sprague-Dawley rat at 5 mg/kg, po
- Assay type: ADME, organism-based
- CONDITION_SET: in vivo
OBSERVATION_TYPE: Tmax (h)
Form entry: value (h) — number only.

Using the record for CC(C)c1noc(N2CCC(Oc3ncnc4c(-c5ccc(S(C)(=O)=O)cc5F)csc34)CC2)n1 , report its Tmax.
1

---

- PROTOCOL_NOTES: AUC (0 to 24 hrs) in ICR mouse at 1 mg/kg, iv
- Format: ADME, organism-based
- CONDITION_SET: in vivo
OBSERVATION_TYPE: AUC(0-t) (µg·h/mL)
Form entry: value (µg·h/mL) — number only.

Using the record for CC(C)c1noc(N2CCC(Oc3ncnc4c(-c5ccc(S(C)(=O)=O)cc5F)csc34)CC2)n1 , report its AUC(0-t).
2.77

---

- PROTOCOL_NOTES: Cmax in ICR mouse at 10 mg/kg, po
- Assay type: ADME, organism-based
- CONDITION_SET: in vivo
OBSERVATION_TYPE: Cmax (ng/mL)
Form entry: value (ng/mL) — number only.

Using the record for CC(C)c1noc(N2CCC(Oc3ncnc4c(-c5ccc(S(C)(=O)=O)cc5F)csc34)CC2)n1 , report its Cmax.
9130

---

- ASSAYED_SYSTEM: Cytochrome P450 3A4 (Homo sapiens, UniProt P08684)
- Sequence (P08684 whole entry): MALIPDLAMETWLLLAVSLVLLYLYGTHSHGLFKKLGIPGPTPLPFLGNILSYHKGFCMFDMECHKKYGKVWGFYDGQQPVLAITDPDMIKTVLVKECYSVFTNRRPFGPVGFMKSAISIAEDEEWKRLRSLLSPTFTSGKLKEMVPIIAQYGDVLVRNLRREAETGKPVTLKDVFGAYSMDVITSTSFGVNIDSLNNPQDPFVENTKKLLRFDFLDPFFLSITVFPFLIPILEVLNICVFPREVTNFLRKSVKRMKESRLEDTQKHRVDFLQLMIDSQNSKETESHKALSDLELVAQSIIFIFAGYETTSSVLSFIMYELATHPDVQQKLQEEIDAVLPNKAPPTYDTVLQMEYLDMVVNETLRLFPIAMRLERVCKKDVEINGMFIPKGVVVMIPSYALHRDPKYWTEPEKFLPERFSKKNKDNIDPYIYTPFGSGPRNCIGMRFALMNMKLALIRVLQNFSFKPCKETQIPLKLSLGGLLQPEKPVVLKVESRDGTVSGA
OBSERVATION_TYPE: pIC50
Just so you know, pIC50 here is -log10 of the concentration in molar units; reply with that number alone.

Given the entry CC(C)c1noc(C2CCN(c3ncnc4c(-c5ccc(S(C)(=O)=O)cc5)csc34)CC2)n1 , what pIC50 was observed with Cytochrome P450 3A4 (Homo sapiens, UniProt P08684)?
4.92

---

- PROTOCOL_NOTES: MRTlast in ICR mouse at 1 mg/kg, iv
- Assay type: ADME, organism-based
- CONDITION_SET: in vivo
OBSERVATION_TYPE: MRT last (h)
Form entry: value (h) — number only.

Using the record for CC(C)c1noc(N2CCC(Oc3ncnc4c(-c5ccc(S(C)(=O)=O)cc5F)csc34)CC2)n1 , report its MRT last.
3

---

- PROTOCOL_NOTES: Half life in ICR mouse at 1 mg/kg, iv
- Assay type: ADME, organism-based
- CONDITION_SET: in vivo
OBSERVATION_TYPE: half-life (min)
Form entry: value (min) — number only.

Using the record for CC(C)c1noc(N2CCC(Oc3ncnc4c(-c5ccc(S(C)(=O)=O)cc5F)csc34)CC2)n1 , report its half-life.
204

---

- ASSAYED_SYSTEM: Glucose-dependent insulinotropic receptor (Homo sapiens)
- PROTOCOL_NOTES: Agonist activity at human GPR119 expressed in CHO-K1 cells preincubated for 5 hrs followed by substrate addition measured after 2 hrs by fluorescence based assay
OBSERVATION_TYPE: pEC50
Just so you know, pEC50 here is -log10 of the concentration in molar units; reply with that number alone.

# CHEMICAL_SMILES, ASSAYED_SYSTEM, RESULT
measured = [
    ("CC(C)(C)c1noc(N2CCC(Oc3ncnc4c(-c5ccc(S(C)(=O)=O)cc5F)csc34)CC2)n1", "Glucose-dependent insulinotropic receptor (Homo sapiens)", 8.44),
]

Using the record for CS(=O)(=O)c1ccc(-c2csc3c(OC4CCN(c5nc(C6CC6)no5)CC4)ncnc23)cc1 , report its pEC50.
7.61

---

- PROTOCOL_NOTES: Clearance in ICR mouse at 1 mg/kg, iv
- Assay type: ADME, organism-based
- CONDITION_SET: in vivo
OBSERVATION_TYPE: clearance (mL/min/kg)
Form entry: value (mL/min/kg) — number only.

Using the record for CC(C)c1noc(N2CCC(Oc3ncnc4c(-c5ccc(S(C)(=O)=O)cc5F)csc34)CC2)n1 , report its clearance.
5

---

- PROTOCOL_NOTES: Cmax in Sprague-Dawley rat at 5 mg/kg, po
- Format: ADME, organism-based
- CONDITION_SET: in vivo
OBSERVATION_TYPE: Cmax (ng/mL)
Form entry: value (ng/mL) — number only.

Using the record for CC(C)c1noc(N2CCC(Oc3ncnc4c(-c5ccc(S(C)(=O)=O)cc5F)csc34)CC2)n1 , report its Cmax.
1480

---

- PROTOCOL_NOTES: Half life in Sprague-Dawley rat at 5 mg/kg, po
- Format: ADME, organism-based
- CONDITION_SET: in vivo
OBSERVATION_TYPE: half-life
The number alone won't do; follow it with the unit.

Using the record for CC(C)c1noc(N2CCC(Oc3ncnc4c(-c5ccc(S(C)(=O)=O)cc5F)csc34)CC2)n1 , report its half-life.
2.4 h

---

- PROTOCOL_NOTES: AUC (0 to 24 hrs) in ICR mouse at 10 mg/kg, po
- Type: ADME, organism-based
- CONDITION_SET: in vivo
OBSERVATION_TYPE: AUC(0-t) (ng·h/mL)
Form entry: value (ng·h/mL) — number only.

Using the record for CC(C)c1noc(N2CCC(Oc3ncnc4c(-c5ccc(S(C)(=O)=O)cc5F)csc34)CC2)n1 , report its AUC(0-t).
32700

---

- PROTOCOL_NOTES: Microsomal stability in mouse liver microsomes assessed as compound remaining at 5 uM measured after 60 mins in presence of NADPH by HPLC analysis
- Format: ADME, Microsome
- CONDITION_SET: read-out: Stability
remaining at 1 h, 5 µM reference
Form entry: value (%) — number only.

# CHEMICAL_SMILES, remaining at 1 h, 5 µM [%]
measured = [
    ("CC(C)c1noc(N2CCC(Oc3ncnc4c(-c5ccc(S(C)(=O)=O)cc5F)csc34)CC2)n1", 38),
    ("CS(=O)(=O)c1ccc(-c2csc3c(N4CCC(c5nc(C6CCCC6)no5)CC4)ncnc23)cc1", 23),
]

Let us examine a further case.
Using the record for CC(C)c1noc(C2CCN(c3ncnc4c(-c5ccc(S(C)(=O)=O)cc5)csc34)CC2)n1 , report its remaining at 1 h, 5 µM.
21

---

remaining at 1 h, 5 µM reference
- PROTOCOL_NOTES: Microsomal stability in human liver microsomes assessed as compound remaining at 5 uM measured after 60 mins in presence of NADPH by HPLC analysis
- Assay type: ADME, Microsome
- CONDITION_SET: read-out: Stability
Form entry: value (%) — number only.

# CHEMICAL_SMILES, remaining at 1 h, 5 µM [%]
data = [
    ("CC(C)c1noc(N2CCC(Oc3ncnc4c(-c5ccc(S(C)(=O)=O)cc5F)csc34)CC2)n1", 35),
]

Let us examine a further case.
Using the record for CC(C)c1noc(C2CCN(c3ncnc4c(-c5ccc(S(C)(=O)=O)cc5)csc34)CC2)n1 , report its remaining at 1 h, 5 µM.
13
